System: HaCaT
Test: MTT assay 72 h
Type: cell-based, human
Settings: Homo sapiens, HaCaT, 72 h
Assay endpoint: pIC50
Hey, just a heads up that pIC50 is the negative log base 10 of the concentration in molar.

Exercise: What value of pIC50 has been recorded for this entry: COc1cccc2c1C(=O)c1c(O)c3c(c(O)c1C2=O)C[C@@](O)(C(=O)CO)C[C@@H]3O[C@H]1C[C@H](N)[C@H](O)[C@H](C)O1 [doxorubicin, reference compound]
Solution: 5.96

* * *

Listed here: items and their measured MIC.
Test system: S. aureus NCTC 4163
Assay: MIC microdilution, standard strain
Format: cell-based
Details: Staphylococcus aureus, NCTC4163; S. aureus NCTC 4163, 18 h, 35 °C; read-out: MIC
Field: numeric (mg/L). Do not append units.

Solved entries (count: 4):
> print(dat)
                                   compound      target.of.assay  assay.endpoint  meas.value
1  Ic1ccc(-n2nnnc2NCc2ccco2)cc1 [Compound 3]  S. aureus NCTC 4163             MIC          64
2   Fc1ccccc1-n1nnnc1NCc1ccco1 [Compound 6]  S. aureus NCTC 4163             MIC           8
3  Cc1ccc(Cl)cc1-n1nnnc1NCc1ccco1 [Compound 2]  S. aureus NCTC 4163             MIC          64
4  Clc1ccc(-n2nnnc2NCc2ccco2)cc1 [Compound 8]  S. aureus NCTC 4163             MIC         128

Please look at the following compound next.
Exercise: State the recorded MIC for this entry: Fc1ccc(-n2nnnc2NCc2ccco2)cc1 [Compound 1]
Solution: 64
